Molecular target: T1, CD25 (R&D systems cat. #223-2A/CF) (UniProt P01589 22-213, limits assumed)
T1 construct: Bought soluble protein
T1 sequence (looked up): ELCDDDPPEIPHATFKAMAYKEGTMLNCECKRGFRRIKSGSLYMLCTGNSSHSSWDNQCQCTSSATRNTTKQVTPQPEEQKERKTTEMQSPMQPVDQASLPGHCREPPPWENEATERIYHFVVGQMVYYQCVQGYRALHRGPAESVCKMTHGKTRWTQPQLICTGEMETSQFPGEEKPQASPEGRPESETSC
Assay: Biacore (SPR); antibody captured on Protein A, CD25 injected
The label Yes is reserved for koff strictly under 0.0002 s⁻¹; No covers values equal to or above it.

Some solved cases for reference:
[[record]]
binder = "anti-CD25 H1.22L1.56 (antibody, V domains shown) VH: QVQLVQSGAEVKKPGASVKVSCKASGYTFTSYRMHWVRQAPGQGLEWMGWINPNSGGTNYAQKFQGRVTITRDTSISTAYMELSRLRSDDTAVYYCARGGGVFDYWGQGTLVTVSS VL: QIVLTQSPATLSLSPGERATLSCRASQSVSYLHWFQQKPGQSPQLLIYTTSNRATGIPARFSGSGSGTDFTLTISSLEPEDFAVYYCHQRSTYPLTFGSGTKLEIK"
class = "No"

[[record]]
binder = "anti-CD25 H1L1.20 (antibody, V domains shown, also called VL combination variant L1.20 paired with H1) VH: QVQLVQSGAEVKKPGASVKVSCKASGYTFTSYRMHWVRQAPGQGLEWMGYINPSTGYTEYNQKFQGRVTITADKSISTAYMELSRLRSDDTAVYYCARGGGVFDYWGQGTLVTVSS VL: EIVLTQSPATLSLSPGERATLSCRASQSVSYLHWYQQKPGQAPRLLIYTTSNRATGIPARFSGSGSGTDFTLTISSLEPEDFAVYYCHQRSTYPLTFGSGTKLEIK"
class = "No"

[[record]]
binder = "anti-CD25 H1.22L1.48 (antibody, V domains shown) VH: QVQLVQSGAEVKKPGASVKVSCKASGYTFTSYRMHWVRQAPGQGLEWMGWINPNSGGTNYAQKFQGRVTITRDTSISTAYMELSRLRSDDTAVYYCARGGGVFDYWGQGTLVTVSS VL: EIVLTQSPATLSLSPGERATLSCRASQSVSYMHWYQQKPGQAPRLLIYTTSNRATGIPARFSGSGSGTDFTLTISSLEPEDFAVYYCHQRSTYPLTFGSGTKLEIK"
class = "Yes"


Problem: Hello, I'm reviewing records and need to know if koff of anti-CD25 H1.22L1.43 (antibody, V domains shown) VH: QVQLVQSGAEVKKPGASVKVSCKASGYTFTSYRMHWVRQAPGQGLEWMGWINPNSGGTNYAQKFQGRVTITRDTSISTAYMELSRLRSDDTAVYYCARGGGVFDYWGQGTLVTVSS VL: EIVLTQSPATLSLSPGERATLSCRASQSVSYLHWYQQKPGQAPRLLIYTTSNRATGIPARFSGSGSGTDYTLTISSLQPEDFAVYYCHQRSTYPLTFGSGTKLEIK is below 0.0002 s⁻¹. Could you check?
Solution: Yes

Problem: Say whether its koff is strictly beneath 0.0002 s⁻¹. Entry: anti-CD25 H1L1.48 (antibody, V domains shown, also called VL combination variant L1.48 paired with H1) VH: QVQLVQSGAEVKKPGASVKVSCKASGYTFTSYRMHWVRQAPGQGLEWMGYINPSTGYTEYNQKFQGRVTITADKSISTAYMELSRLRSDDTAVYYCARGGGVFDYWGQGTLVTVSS VL: EIVLTQSPATLSLSPGERATLSCRASQSVSYMHWYQQKPGQAPRLLIYTTSNRATGIPARFSGSGSGTDFTLTISSLEPEDFAVYYCHQRSTYPLTFGSGTKLEIK
Solution: No
